Reference source: patent US20250368646A1

Target Under Test: human Werner helicase (WRN-BV08, amino acids 517-1235 with L1074F point mutation) (Homo sapiens, UniProt Q14191, L1074F)
Construct: [pFastBac1-WRN-(517-1235 L1074F)-TEV-8His]; 8xHis (C, cleaved yes); TEV cleavage site (ENLYFQG) (C)
Sequence (Q14191 with tags, fused parts or gaps L1074F): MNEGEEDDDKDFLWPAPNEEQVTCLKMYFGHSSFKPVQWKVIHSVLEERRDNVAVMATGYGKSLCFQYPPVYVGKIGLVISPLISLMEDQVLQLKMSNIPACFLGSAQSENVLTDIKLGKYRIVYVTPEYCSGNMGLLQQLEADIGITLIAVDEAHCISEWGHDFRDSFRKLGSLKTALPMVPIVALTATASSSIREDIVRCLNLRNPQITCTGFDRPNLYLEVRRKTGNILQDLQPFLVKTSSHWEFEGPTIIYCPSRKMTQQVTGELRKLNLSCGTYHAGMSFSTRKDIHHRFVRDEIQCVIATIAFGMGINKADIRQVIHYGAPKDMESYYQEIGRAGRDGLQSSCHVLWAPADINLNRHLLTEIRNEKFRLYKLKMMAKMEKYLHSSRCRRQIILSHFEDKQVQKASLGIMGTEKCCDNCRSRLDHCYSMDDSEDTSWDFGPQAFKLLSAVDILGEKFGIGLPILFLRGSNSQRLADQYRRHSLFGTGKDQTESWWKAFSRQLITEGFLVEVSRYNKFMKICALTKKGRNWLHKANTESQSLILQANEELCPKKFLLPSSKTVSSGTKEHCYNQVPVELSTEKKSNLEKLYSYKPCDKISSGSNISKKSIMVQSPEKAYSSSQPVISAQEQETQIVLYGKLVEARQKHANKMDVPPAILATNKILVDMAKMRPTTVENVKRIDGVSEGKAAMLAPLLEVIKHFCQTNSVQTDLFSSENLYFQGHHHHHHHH
Test Name: ADP-Glo WRN helicase ATPase inhibition assay
Condition Parameters: 0.15 nM WRN, 5 μM ATP, 0.1 nM DNA duplex; 15 minutes preincubation, 60 minutes at 25° C.; read-out: ADP-Glo_hWRN_IC50
pIC50: −log10 of the molar value.
Quantity Kind: pIC50

Compound	pIC50
COc1cc(-n2nc3c(=O)c(N4CCN(C(=O)c5ncnc(C)c5O)[C@H]5CC[C@@H]54)c4n(c3n2)[C@@H](C(=O)NC23CC(C5CC5)(C2)C3)C[C@H]4C)ccn1 (single isomer, unassigned)	7.30 to 8.30

Consider the record given below.
Task: Endpoint output: pIC50 of Cc1cnc2c(n1)c(=O)c(N1CCN(C(=O)c3ncnc(C)c3O)[C@H]3CC[C@@H]31)c1n2[C@@H](C(=O)Nc2ccc(C(F)(F)F)cc2Cl)C[C@@H]1C (single isomer, unassigned) . Value?
Output: < 6.30

----------
Each item that follows carries a reported IC50.
Target Under Test: human Werner helicase (WRN-BV08, amino acids 517-1235 with L1074F point mutation) (Homo sapiens, UniProt Q14191, L1074F)
Construct: [pFastBac1-WRN-(517-1235 L1074F)-TEV-8His]; 8xHis (C, cleaved yes); TEV cleavage site (ENLYFQG) (C); made in house; host or cells: Sf9 insect cells (baculovirus, pFastBac)
Test Name: ADP-Glo WRN helicase ATPase inhibition assay
Format: biochemical
Condition Parameters: 0.15 nM WRN, 5 μM ATP, 0.1 nM DNA duplex; 15 minutes preincubation, 60 minutes at 25° C.; read-out: ADP-Glo_hWRN_IC50

Task: Record request: IC50 value, item Cc1ncnc(C(=O)N2CCN(c3c4n(c5nn(C6=CCOCC6)nc5c3=O)[C@@H](C(=O)Nc3ccc(C(F)(F)F)cc3Cl)C[C@H]4C)[C@H]3CC[C@@H]32)c1O (single isomer, unassigned)
Output: ≤ 5 nM

Task: Find the recorded IC50 belonging to Cc1nc2c(=O)c(N3CCN(C(=O)c4ncnc(C)c4O)[C@H]4CC[C@@H]43)c3n(c2nc1C)[C@H](C(=O)Nc1ccc(C(F)(F)F)cc1Cl)C[C@@H]3C (single isomer, unassigned) and report it.
Output: ≤ 5 nM

----------
Target Under Test: human Werner helicase (WRN-BV08, amino acids 517-1235 with L1074F point mutation) (Homo sapiens, UniProt Q14191, L1074F)
Construct: [pFastBac1-WRN-(517-1235 L1074F)-TEV-8His]; 8xHis (C, cleaved yes); TEV cleavage site (ENLYFQG) (C)
Test Name: ADP-Glo WRN helicase ATPase inhibition assay
Condition Parameters: 0.15 nM WRN, 5 μM ATP, 0.1 nM DNA duplex; 15 minutes preincubation, 60 minutes at 25° C.; read-out: ADP-Glo_hWRN_IC50
Listed next: entries and their corresponding IC50.

Compound	IC50
Cc1nc2c(=O)c(N3CCN(C(=O)c4ncnc(C)c4O)[C@H]4CC[C@@H]43)c3n(c2nc1C)[C@@H](C(=O)Nc1ccc(C(F)(F)F)cc1Cl)C[C@@H]3C (single isomer, unassigned)	≤ 5 nM
COc1cc(-n2nc3c(=O)c(N4CCN(C(=O)c5ncnc(C)c5O)[C@H]5CC[C@@H]54)c4n(c3n2)[C@H](C(=O)Nc2ccc(C(F)(F)F)cc2F)C[C@@H]4C)ccn1 (single isomer, unassigned)	≤ 5 nM

Task: Which IC50 is listed for COc1cc(-n2nc3c(=O)c(N4CCN(C(=O)c5ncnc(C)c5O)[C@H]5CC[C@@H]54)c4n(c3n2)[C@@H](C(=O)Nc2ccc(C(F)(F)F)cc2F)C[C@H]4C)ccn1 (single isomer, unassigned) ?
Output: 100 to 500 nM

Task: Given the entry COc1cc(-n2nc3c(=O)c(N4CCN(C(=O)c5ncnc(C)c5O)[C@H]5CC[C@@H]54)c4n(c3n2)[C@H](C(=O)NC23CC(C5CC5)(C2)C3)C[C@@H]4C)ccn1 (single isomer, unassigned) , report its measured IC50.
Output: 100 to 500 nM

----------
In this section we review reported pIC50 values for a set of molecules.
Target Under Test: human Werner helicase (WRN-BV08, amino acids 517-1235 with L1074F point mutation) (Homo sapiens, UniProt Q14191, L1074F)
Construct: [pFastBac1-WRN-(517-1235 L1074F)-TEV-8His]; 8xHis (C, cleaved yes); TEV cleavage site (ENLYFQG) (C); made in house; host or cells: Sf9 insect cells (baculovirus, pFastBac)
Test Name: ADP-Glo WRN helicase ATPase inhibition assay
Type: biochemical
Condition Parameters: 0.15 nM WRN, 5 μM ATP, 0.1 nM DNA duplex; 15 minutes preincubation, 60 minutes at 25° C.; read-out: ADP-Glo_hWRN_IC50
pIC50: −log10 of the molar value.

# count of solved cases: 8
Molecule	Result
Cc1ncnc(C(=O)N2CCN(c3c4n(c5nn(C6=CCOCC6)nc5c3=O)[C@H](C(=O)Nc3ccc(C(F)(F)F)cc3Cl)C[C@@H]4C)[C@H]3CC[C@@H]32)c1O (single isomer, unassigned)	< 6.30
Cc1cnc2c(n1)c(=O)c(N1CCN(C(=O)c3ncnc(C)c3O)[C@H]3CC[C@@H]31)c1n2[C@H](C(=O)Nc2ccc(C(F)(F)F)cc2Cl)C[C@H]1C (single isomer, unassigned)	≥ 8.30
COc1cc(-n2nc3c(=O)c(N4CCN(C(=O)c5ncnc(C)c5O)[C@H]5CC[C@@H]54)c4n(c3n2)[C@@H](C(=O)Nc2ccc(C(F)(F)F)cc2Cl)C[C@@H]4C)ccn1 (single isomer, unassigned)	7.30 to 8.30
Cc1ncnc(C(=O)N2CCN(c3c4n(c5nn(C6CC6)nc5c3=O)[C@@H](C(=O)Nc3ccc(C(F)(F)F)cc3Cl)C[C@H]4C)[C@H]3CC[C@@H]32)c1O (single isomer, unassigned)	≥ 8.30
Cc1cnc2c(n1)c(=O)c(N1CCN(C(=O)c3ncnc(C)c3O)[C@H]3CC[C@@H]31)c1n2[C@@H](C(=O)Nc2ccc(C(F)(F)F)cc2Cl)C[C@H]1C (single isomer, unassigned)	6.30 to 7.00
Cc1nc2c(=O)c(N3CCN(C(=O)c4ncnc(C)c4O)[C@H]4CC[C@@H]43)c3n(c2nc1C)[C@@H](C(=O)Nc1ccc(C(F)(F)F)cc1Cl)C[C@H]3C (single isomer, unassigned)	7.00 to 7.30
Cc1nc2c(=O)c(N3CCN(C(=O)c4ncnc(C)c4O)[C@H]4CC[C@@H]43)c3n(c2nc1C)[C@H](C(=O)Nc1ccc(C(F)(F)F)cc1Cl)C[C@H]3C (single isomer, unassigned)	< 6.30
COc1cc(-n2nc3c(=O)c(N4CCN(C(=O)c5ncnc(C)c5O)[C@H]5CC[C@@H]54)c4n(c3n2)[C@H](C(=O)Nc2ccc(C(F)(F)F)cc2Cl)C[C@@H]4C)ccn1 (single isomer, unassigned)	6.30 to 7.00

Task: Reported pIC50, molecule Cc1ncnc(C(=O)N2CCN(c3c4n(c5nn(C6CC6)nc5c3=O)[C@H](C(=O)Nc3ccc(C(F)(F)F)cc3Cl)C[C@@H]4C)[C@H]3CC[C@@H]32)c1O (single isomer, unassigned) : ____
Output: 6.30 to 7.00

Task: Item under review: Cc1ncnc(C(=O)N2CCN(c3c4n(c5nn(C6=CCOCC6)nc5c3=O)[C@H](C(=O)Nc3ccc(C(F)(F)F)cc3Cl)C[C@H]4C)[C@H]3CC[C@@H]32)c1O (single isomer, unassigned) . Reported pIC50?
Output: < 6.30

Task: Recorded pIC50 of COc1cc(-n2nc3c(=O)c(N4CCN(C(=O)c5ncnc(C)c5O)[C@H]5CC[C@@H]54)c4n(c3n2)[C@@H](C(=O)Nc2ccc(C(F)(F)F)cc2F)C[C@@H]4C)ccn1 (single isomer, unassigned) , please.
Output: ≥ 8.30

Task: Can you share its pIC50? I mean this molecule: COc1cc(-n2nc3c(=O)c(N4CCN(C(=O)c5ncnc(C)c5O)[C@H]5CC[C@@H]54)c4n(c3n2)[C@@H](C(=O)NC23CC(C5CC5)(C2)C3)C[C@@H]4C)ccn1 (single isomer, unassigned)
Output: 7.30 to 8.30

Task: Quick one: pIC50 of Cc1cnc2c(n1)c(=O)c(N1CCN(C(=O)c3ncnc(C)c3O)[C@H]3CC[C@@H]31)c1n2[C@H](C(=O)Nc2ccc(C(F)(F)F)cc2Cl)C[C@@H]1C (single isomer, unassigned) ?
Output: ≥ 8.30

Task: Form field: reported pIC50 of COc1cc(-n2nc3c(=O)c(N4CCN(C(=O)c5ncnc(C)c5O)[C@H]5CC[C@@H]54)c4n(c3n2)[C@H](C(=O)Nc2ccc(C(F)(F)F)cc2F)C[C@H]4C)ccn1 (single isomer, unassigned)
Output: 6.30 to 7.00

Task: Returns the measured pIC50 for the input molecule. Input: COc1cc(-n2nc3c(=O)c(N4CCN(C(=O)c5ncnc(C)c5O)[C@H]5CC[C@@H]54)c4n(c3n2)[C@H](C(=O)NC23CC(C5CC5)(C2)C3)C[C@H]4C)ccn1 (single isomer, unassigned)
Output: 7.00 to 7.30
